Test system: Mus musculus
Experiment: Antidepressant activity in overnight fasted Mus musculus (mouse) assessed as decrease in immobility time at 30 mg/kg, ip administered 60 min prior to testing measured for 5 min by tail suspension test (reference value: 169.8 +/- 13 secs)
Assay type: functional
Settings: route intraperitoneal
Strictly below 100 s in Time: TRUE. Otherwise: FALSE.

smiles_text	cat
CN(C)CCSc1n[nH]c(-c2ccccc2)n1	FALSE
Cc1ccc(-c2nc(SCCN(C)C)n[nH]2)cc1	FALSE
CN(C)CCSc1n[nH]c(-c2ccc(O)cc2)n1	FALSE
CCN(CC)CCSc1n[nH]c(-c2ccc(Cl)cc2Cl)n1	FALSE
COc1ccc(-c2nc(SCCN(C3CCCCC3)C3CCCCC3)n[nH]2)cc1	TRUE

----------
System: Mus musculus
Experiment: Antidepressant activity in overnight fasted Mus musculus (mouse) assessed as decrease in immobility time at 100 mg/kg, ip administered 60 min prior to testing measured for 5 min by tail suspension test (reference value: 169.8 +/- 13 secs)
Assay type: functional
Conditions: route intraperitoneal
Binary label based on Time with cut-off 100 s: below gives Satisfied, not below gives Not satisfied.

smiles_text	cat
CN(C)CCSc1n[nH]c(-c2ccc(Cl)cc2)n1	Satisfied
Oc1ccc(-c2nc(SCCN(C3CCCCC3)C3CCCCC3)n[nH]2)cc1	Not satisfied
COc1ccc(-c2nc(SCCN(C3CCCCC3)C3CCCCC3)n[nH]2)cc1	Satisfied
CCN(CC)CCSc1n[nH]c(-c2ccccc2O)n1	Not satisfied
CN(C)CCSc1n[nH]c(-c2ccc(O)cc2)n1	Not satisfied
CCN(CC)CCSc1n[nH]c(-c2ccccc2)n1	Not satisfied
CN(C)CCSc1n[nH]c(-c2ccccc2O)n1	Not satisfied
CCN(CC)CCSc1n[nH]c(-c2ccc(Cl)cc2)n1	Not satisfied
Cc1ccc(-c2nc(SCCN(C)C)n[nH]2)cc1	Not satisfied
CCN(CC)CCSc1n[nH]c(-c2ccc(Cl)cc2Cl)n1	Not satisfied
CCN(CC)CCSc1n[nH]c(-c2ccc(O)cc2)n1	Not satisfied
